Reference source: paper PMC10795512

# MIC per entry
System: P. aeruginosa PAO1
assay_overview: MIC, broth microdilution
Format: cell-based, Pseudomonas aeruginosa
experimental_conditions: LB broth, 5 × 10^5 CFU mL^−1, 24 h at 37°C, OD 600 nm, three replicates
Where no end group is shown, it is not given here.
Give just the number in µmol/L; leave the unit off.

Below are worked cases with known answers.
1) LKLMGIVKKVLGAL-NH2 [WT1, reference compound]
32
2) AKLMGIVKKVLGAL-NH2 [A1–1]
16
3) LKLMGIVKKVLGKL-NH2 [K13–1]
8
4) LKLLGIVKKKLGAI-NH2 [K10–2]
4
5) LKLLGIVKKVLGKI-NH2 [K13–2]
4

// next entry
Input: Enter reported MIC observed with P. aeruginosa PAO1 for LKLLGIVKKVLGAI-NH2 [WT2, reference compound]
Output: 32

---

Recorded log10 MIC values for a group of substances are listed next.
Tested on: S. aureus ATCC 12600
assay_overview: MIC, broth microdilution
Assay type: cell-based, Staphylococcus aureus
experimental_conditions: LB broth, 5 × 10^5 CFU mL^−1, 24 h at 37°C, OD 600 nm, three replicates
Where no end group is shown, it is not given here.
Short version: log10 scale, MIC, µM.

Consider the reported log10 MIC for these substances:
1. AKLMGIVKKVLGAL-NH2 [A1–1]
0.90
2. LKLAGIVKKVLGAL-NH2 [A4–1]
0.90
3. LKLLGIVKKVLAAI-NH2 [A12–2]
0.30
4. LKLLGIVKKKLGAI-NH2 [K10–2]
0.90
5. LKLLAIVKKVLGAI-NH2 [A5–2]
0.60

Input: Recall the recorded log10 MIC for LKLLGIVKKVLGAI-NH2 [WT2, reference compound] with S. aureus ATCC 12600 and state it.
Output: 1.51

Input: For S. aureus ATCC 12600, provide log10 MIC of LKLMAIVKKVLGAL-NH2 [A5–1] please.
Output: 0.60

Input: Hi! What's the reported log10 MIC for LKLMGIVKKVLGAL-NH2 [WT1, reference compound] on S. aureus ATCC 12600?
Output: 1.20

Input: Under S. aureus ATCC 12600: log10 MIC value of LKLMGIVKKVLAAL-NH2 [A12–1] ?
Output: 0.30

Input: Find log10 MIC (S. aureus ATCC 12600) for the entry LKLMGIVKKVLGKL-NH2 [K13–1]
Output: 2.11
